Target: T1, biotinylated recombinant human trimeric ARG2 enzyme (Avi-huARG2-His10) (human, UniProt P78540 23-354, biotinylated)
T1 construct: also called avi-Arg2-His10; bio-ARG2
T1 chain: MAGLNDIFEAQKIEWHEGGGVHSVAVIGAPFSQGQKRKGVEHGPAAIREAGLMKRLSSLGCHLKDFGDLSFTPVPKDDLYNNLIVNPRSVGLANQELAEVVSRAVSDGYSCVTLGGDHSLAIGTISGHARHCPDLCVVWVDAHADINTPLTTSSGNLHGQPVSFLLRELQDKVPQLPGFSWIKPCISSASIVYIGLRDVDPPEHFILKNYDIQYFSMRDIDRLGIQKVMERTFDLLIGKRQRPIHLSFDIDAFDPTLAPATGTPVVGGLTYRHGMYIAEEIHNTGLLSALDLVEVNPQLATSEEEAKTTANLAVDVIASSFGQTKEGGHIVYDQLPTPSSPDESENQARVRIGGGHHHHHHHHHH
Assay: BLI (OctetRED), biotinylated ARG2 on streptavidin, Fab as analyte
QUANTITY MEASURED: koff
Answer as a quantity: numeral, then unit.

INPUT: Input C0021101 Fab (Fab, V domains shown, Human Fab) VH: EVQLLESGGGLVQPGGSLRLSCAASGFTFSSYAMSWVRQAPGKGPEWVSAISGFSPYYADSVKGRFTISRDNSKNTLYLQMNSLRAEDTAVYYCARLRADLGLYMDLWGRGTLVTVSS VL: QSVLTQPPSVSAAPGQKVTISCSGSSSNIGNHYVSWYQQLPGTAPKLLIYNNRSPTSGIPDRFSGSKSGTSATLGITGLQTGDEADYYCGTWDSSLSALVFGGGTKLTVL , output reported koff.
OUTPUT: 0.00107 s⁻¹

INPUT: Input C0021142 Fab (Fab, V domains shown, Human Fab) VH: EVQLLESGGGLVQPGGSLRLSCAASGFTFSSYAMSWVRQAPGKGLEWVSAHTHSPGSTYYADSVKGRFTISRDNSKNTLYLQMNSLRAEDTAVYYCARLRADLGLYMDLWGRGTLVTVSS VL: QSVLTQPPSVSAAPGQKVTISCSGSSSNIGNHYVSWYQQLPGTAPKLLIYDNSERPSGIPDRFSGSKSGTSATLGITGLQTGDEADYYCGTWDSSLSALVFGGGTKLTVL , output reported koff.
OUTPUT: 0.0011 s⁻¹
